Hepatotoxicity: reported HepSE_cholecystitis for various compounds.
Lab note: jot down the number only; don't add units.

Field: example entries. Status: answers known.
{"columns": ["COMPOUND", "HepSE_cholecystitis"],
 "data": [
  ["CN[C@H](CC(C)C)C(=O)N[C@H]1C(=O)N[C@@H](CC(N)=O)C(=O)N[C@H]2C(=O)N[C@H]3C(=O)N[C@H](C(=O)N[C@H](C(=O)O)c4cc(O)cc(O)c4-c4cc3ccc4O)[C@H](O)c3ccc(c(Cl)c3)Oc3cc2cc(c3O[C@@H]2O[C@H](CO)[C@@H](O)[C@H](O)[C@H]2O[C@H]2C[C@](C)(N)[C@H](O)[C@H](C)O2)Oc2ccc(cc2Cl)[C@H]1O", 0],
  ["CS(=O)(=O)c1ccc(C2=C(c3ccccc3)C(=O)OC2)cc1", 1],
  ["COc1ccc(CC2c3cc(OC)c(OC)cc3CC[N+]2(C)CCC(=O)OCCCCCOC(=O)CC[N+]2(C)CCc3cc(OC)c(OC)cc3C2Cc2ccc(OC)c(OC)c2)cc1OC (configuration not stated)", 0]
]}

With Hepatotoxicity as the test system, NS(=O)(=O)c1cc2c(cc1Cl)N=CNS2(=O)=O [CHLOROTHIAZIDE] showed HepSE_cholecystitis of 0

Bench note, Hepatotoxicity: entry CC(C)C[C@H](NC(=O)[C@@H](COC(C)(C)C)NC(=O)[C@H](Cc1ccc(O)cc1)NC(=O)[C@H](CO)NC(=O)[C@H](Cc1c[nH]c2ccccc12)NC(=O)[C@H](Cc1cnc[nH]1)NC(=O)[C@@H]1CCC(=O)N1)C(=O)N[C@@H](CCCNC(=N)N)C(=O)N1CCC[C@H]1C(=O)NNC(N)=O , its HepSE_cholecystitis = 0

Entry CCCCC[C@](C)(O)/C=C/[C@@H]1[C@@H](C/C=C/CCCC(=O)O)[C@@H](O)C[C@H]1O ; assay system Hepatotoxicity; HepSE_cholecystitis recorded at 0

Query O=NN(CCCl)C(=O)NC1CCCCC1 on Hepatotoxicity; HepSE_cholecystitis returned: 0

HepSE_cholecystitis for Hepatotoxicity with input CO/N=C1\CN(c2nc3c(cc2F)c(=O)c(C(=O)O)cn3C2CC2)CC1CN (configuration not stated) equals 0

---

The next entries give measured HepSE_cholelithiasis for Hepatotoxicity.

{"columns": ["CHEM SMILES", "HepSE_cholelithiasis"],
 "data": [
  ["CCC[C@@H]1C[C@@H](C(=O)N[C@@H]([C@H]2O[C@H](SC)[C@H](O)[C@@H](O)[C@H]2O)[C@@H](C)O)N(C)C1", 0],
  ["Cc1onc(-c2ccccc2)c1C(=O)N[C@@H]1C(=O)N2[C@@H]1SC(C)(C)[C@@H]2C(=O)O", 0],
  ["Nc1cc(Cl)c(N=C2NCCN2)c(Cl)c1", 0]
]}

Here is another compound to look at.
Result for Cc1ncc2n1-c1ccc(Cl)cc1C(c1ccccc1F)=NC2 , tested on Hepatotoxicity, HepSE_cholelithiasis: 0

---

Each record here notes measured HepSE_cholecystitis.
- System: Hepatotoxicity
I only need the number, thanks.

Worked set:
{"columns": ["COMPOUND", "READOUT VALUE"],
 "data": [
  ["CC(=O)O[C@@]12CO[C@@H]1C[C@H](O)[C@@]1(C)C(=O)[C@H](O)C3=C(C)[C@@H](OC(=O)[C@H](O)[C@@H](NC(=O)OC(C)(C)C)c4ccccc4)C[C@@](O)([C@@H](OC(=O)c4ccccc4)[C@H]21)C3(C)C.O.O.O", 0],
  ["CC(C)NCC(O)COc1cccc2[nH]ccc12 (stereo not drawn)", 0]
]}

Entry CC(C)OC(=O)CCC/C=C\C[C@@H]1[C@@H](/C=C/[C@@H](O)COc2cccc(C(F)(F)F)c2)[C@H](O)C[C@@H]1O , tested on Hepatotoxicity, has a reported HepSE_cholecystitis of 0

---

- System: Hepatotoxicity
Decide using HepSE_Combined Scores: a value greater than or equal to 1 is satisfied, a smaller one is not satisfied.

Reference set, count: 6
{"columns": ["COMPOUND", "GROUP"],
 "data": [
  ["Cn1c(=O)c2c(ncn2C)n(C)c1=O", "not satisfied"],
  ["OC(c1cc(C(F)(F)F)nc2c(C(F)(F)F)cccc12)C1CCCCN1 (stereo unspecified)", "not satisfied"],
  ["CC#CCC(C)[C@H](O)/C=C/[C@@H]1[C@H]2C/C(=C/CCCC(=O)O)C[C@H]2C[C@H]1O (stereo partly specified)", "not satisfied"],
  ["COc1ccc2cc(CCC(C)=O)ccc2c1", "satisfied"],
  ["NCCCC(N)(C(=O)O)C(F)F (stereo unspecified)", "not satisfied"],
  ["CCCCN1C[C@H](O)[C@@H](O)[C@H](O)[C@H]1CO", "not satisfied"]
]}

Problem: Threshold query (HepSE_Combined Scores >= 1) on CCOC(=O)C1=C[C@@H](OC(CC)CC)[C@H](NC(C)=O)[C@@H](N)C1
Solution: satisfied

Problem: Evaluate CCCN(CCc1ccsc1)C1CCc2c(O)cccc2C1 (stereo unspecified) : HepSE_Combined Scores at minimum 1?
Solution: not satisfied

Problem: Given the entry CCCNC(C)C(=O)Nc1c(C)csc1C(=O)OC (stereo unspecified) , answer whether its HepSE_Combined Scores meets or surpasses 1.
Solution: not satisfied

---

Quick record: HepSE_hepatitis, Hepatotoxicity.
API note: the answer field is a bare number with no unit suffix.

Solved entries (count: 3):
{"columns": ["COMPOUND", "HepSE_hepatitis"],
 "data": [
  ["Cc1ccccc1N1C(=O)c2cc(S(N)(=O)=O)c(Cl)cc2NC1C (configuration not stated)", 1],
  ["NCCCC(=O)O", 0],
  ["CC(C)(C)NC(=O)[C@H]1CC[C@H]2[C@@H]3CC[C@H]4NC(=O)C=C[C@]4(C)[C@H]3CC[C@]12C [FINASTERIDE]", 0]
]}

O=P(O)(O)C(O)(Cc1cccnc1)P(=O)(O)O has a reported HepSE_hepatitis of 0

---

Here's a batch of compounds along with measured HepSE_cholelithiasis for Hepatotoxicity.
Keep the answer to the number alone.

In the examples that follow, each entry is paired with its recorded HepSE_cholelithiasis.
{"columns": ["CHEM SMILES", "READOUT VALUE"],
 "data": [
  ["O=C1CN=C(c2ccccn2)c2cc(Br)ccc2N1", 0],
  ["CN1CC(=O)N2[C@H](c3ccc4c(c3)OCO4)c3[nH]c4ccccc4c3C[C@@H]2C1=O", 0],
  ["CO/N=C(\\C(=O)N[C@@H]1C(=O)N2C(C(=O)O)=C(COC(N)=O)CS[C@H]12)c1ccco1", 0],
  ["O=C1Nc2ccc(Cl)cc2[C@@](C#CC2CC2)(C(F)(F)F)O1", 0]
]}

# input for lookup
Reading of HepSE_cholelithiasis for CO/N=C(\C(=O)N[C@@H]1C(=O)N2C(C(=O)[O-])=C(C[N+]3(C)CCCC3)CS[C@H]12)c1csc(N)n1 with Hepatotoxicity: 0

---

A short record of HepSE_liver disease observed with Hepatotoxicity follows.

Examples with their reported HepSE_liver disease follow.
{"columns": ["COMPOUND", "TARGET OR TEST SYSTEM", "READOUT VALUE"],
 "data": [
  ["Cc1cn([C@H]2C[C@H](O)[C@@H](CO)O2)c(=O)[nH]c1=O [DOXRIBTIMINE]", "Hepatotoxicity", 0],
  ["Cn1c(=O)c2[nH]cnc2n(C)c1=O.Cn1c(=O)c2[nH]cnc2n(C)c1=O.NCCN [AMINOPHYLLINE]", "Hepatotoxicity", 0],
  ["C[C@]12CC[C@H]3[C@@H](CCC4=CC(=O)CC[C@@]43C)[C@@H]1CC[C@@H]2O [TESTOSTERONE]", "Hepatotoxicity", 0],
  ["Nc1cc(Cl)c(N=C2NCCN2)c(Cl)c1 [APRACLONIDINE]", "Hepatotoxicity", 0],
  ["CC1(C)O[C@@H]2C[C@H]3[C@@H]4C[C@H](F)C5=CC(=O)CC[C@]5(C)[C@H]4[C@@H](O)C[C@]3(C)[C@]2(C(=O)CO)O1 [FLURANDRENOLIDE]", "Hepatotoxicity", 0]
]}

compound CCCN1CCCC[C@H]1C(=O)Nc1c(C)cccc1C [ROPIVACAINE] , HepSE_liver disease observed: 0

Input Cc1onc(-c2ccccc2)c1C(=O)N[C@@H]1C(=O)N2[C@@H]1SC(C)(C)[C@@H]2C(=O)O [OXACILLIN] . Output HepSE_liver disease: 0

Reported HepSE_liver disease ( COc1c(N2C[C@@H]3CCCN[C@@H]3C2)c(F)cc2c(=O)c(C(=O)O)cn(C3CC3)c12 [MOXIFLOXACIN] ) = 0

Short answer for CC(=O)CCCCn1c(=O)c2c(ncn2C)n(C)c1=O [PENTOXIFYLLINE] : HepSE_liver disease was 0

---

- Tested on: Hepatotoxicity
MEASURED METRIC: HepSE_hepatic failure
Would you mind answering with just the numeric figure?

Worked cases, HepSE_hepatic failure given:
{"columns": ["COMPOUND", "HepSE_hepatic failure"],
 "data": [
  ["C[N+]1(C)[C@@H]2C[C@@H](OC(=O)C(O)(c3cccs3)c3cccs3)C[C@H]1[C@@H]1O[C@@H]12 [TIOTROPIUM]", 0],
  ["Cc1cn([C@H]2C[C@H](N=[N+]=[N-])[C@@H](CO)O2)c(=O)[nH]c1=O [ZIDOVUDINE]", 0],
  ["N#Cc1ccc(C(c2ccc(C#N)cc2)n2cncn2)cc1 [LETROZOLE]", 0]
]}

With those in mind, consider the next compound.
Here CN(C)[C@@H]1C(O)=C(C(N)=O)C(=O)[C@@]2(O)C(O)=C3C(=O)c4c(O)cccc4[C@@](C)(O)[C@H]3[C@H](O)[C@@H]12 [OXYTETRACYCLINE] was tested on Hepatotoxicity, and its HepSE_hepatic failure came to 0
